- TESTED SYSTEM: HLA-A*24 (human)
- METHOD: UV-exchange ELISA, exchange yield grade
REPORTED METRIC: peptide exchange yield

Data request: # peptide exchange yield lookup, item LYSELNKWSF [… (SEQ ID NO: 218)]
Data returned: 50 to 75%

Data request: # peptide exchange yield lookup, item IYKWITDNF [… (SEQ ID NO: 155)]
Data returned: > 75%

Data request: # peptide exchange yield lookup, item KYPDIVQQF [… (SEQ ID NO: 161)]
Data returned: 50 to 75%

Data request: # peptide exchange yield lookup, item GYIKLINFI [… (SEQ ID NO: 261)]
Data returned: > 75%
